Overview of recorded IC50 for various molecules
target: FGFR1 (Homo sapiens); construct: DMS114 (FGFR1 amplification); assay: pERK potency assay (In Cell ELISA), DMS114 cells; conditions: DMS114 (FGFR1 amplification) cells, 3 hours
Readout Kind: IC50

> print(dat)
                                   molecule  recorded.result
1  C=CC(=O)N1CCC2(CC=C(c3c(-c4ccnn4C)c4c(N)ncnc4n3C)CC2)CC1         > 100 nM
2  C=CC(=O)N1CCC2(CC=C(c3c(-c4ncc(OC5CCOC5)cn4)c4c(N)ncnc4n3C)CC2)CC1 (stereo not shown)         > 100 nM
3  C=CC(=O)N1CCC2(CC=C(c3c(-c4ccc(OC5CC5)cc4)c4c(N)ncnc4n3C(F)F)CC2)CC1     30 to 100 nM
4  [2H]C([2H])([2H])Oc1ccc(-c2c(C3=C(F)CC4(CC3)CCN(C(=O)C=C)CC4)n(C)c3ncnc(N)c23)cc1     30 to 100 nM

----------
target: FGFR1 (Homo sapiens, UniProt P11362); construct: DMS114 (FGFR1 amplification); host or cells: DMS114; test: pERK potency assay (In Cell ELISA), DMS114 cells; assay type: cell-based; details: DMS114 (FGFR1 amplification) cells, 3 hours
Sequence (P11362 22-822): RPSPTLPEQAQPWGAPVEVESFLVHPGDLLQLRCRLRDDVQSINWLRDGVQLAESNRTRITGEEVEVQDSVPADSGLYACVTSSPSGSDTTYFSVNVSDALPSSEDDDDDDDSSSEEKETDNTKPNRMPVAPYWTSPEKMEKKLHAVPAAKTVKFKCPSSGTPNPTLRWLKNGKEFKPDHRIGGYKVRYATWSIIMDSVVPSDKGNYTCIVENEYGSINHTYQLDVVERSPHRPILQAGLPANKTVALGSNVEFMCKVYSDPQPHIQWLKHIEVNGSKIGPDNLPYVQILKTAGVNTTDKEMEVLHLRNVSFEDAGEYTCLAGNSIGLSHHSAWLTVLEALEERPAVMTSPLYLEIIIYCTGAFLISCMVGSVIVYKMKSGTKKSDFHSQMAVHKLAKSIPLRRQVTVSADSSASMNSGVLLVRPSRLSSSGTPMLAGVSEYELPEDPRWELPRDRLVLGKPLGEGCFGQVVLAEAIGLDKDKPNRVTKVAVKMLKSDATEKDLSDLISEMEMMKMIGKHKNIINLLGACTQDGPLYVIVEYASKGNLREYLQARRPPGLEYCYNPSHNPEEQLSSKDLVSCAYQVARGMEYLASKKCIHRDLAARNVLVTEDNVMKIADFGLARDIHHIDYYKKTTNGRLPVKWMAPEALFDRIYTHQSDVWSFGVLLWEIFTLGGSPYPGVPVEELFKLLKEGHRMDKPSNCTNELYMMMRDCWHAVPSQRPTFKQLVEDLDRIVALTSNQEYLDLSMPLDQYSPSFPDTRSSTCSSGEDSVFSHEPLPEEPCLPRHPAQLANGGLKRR
pIC50: −log10 of the molar value.
Readout Kind: pIC50

> print(dat)
                                   compound  readout.kind  recorded.result
1  C=CC(=O)N1CCC2(CC=C(c3c(-c4ccc(OC5CCC5)nc4)c4c(N)ncnc4n3C)CC2)CC1 [Example 26]         pIC50           < 7.00
2  C=CC(=O)N1CCC2(CC=C(c3c(-c4cnc(OC5CC5)c(F)c4)c4c(N)ncnc4n3C)CC2)CC1 [Example 23]         pIC50           < 7.00
3  C=CC(=O)N1CCC2(CC=C(c3c(-c4ncc(OC5CC5)cn4)c4c(N)ncnc4n3C)CC2)CC1 [Example 50]         pIC50           < 7.00
4  C=CC(=O)N1CCC2(CC=C(c3c(-c4ccc(OC(F)F)cc4)c4c(N)ncnc4n3C)CC2)CC1 [Example 17]         pIC50     7.00 to 7.52
5  C=CC(=O)N1CCC2(CC=C(c3c(-c4ccc(Oc5ncccn5)cc4)c4c(N)ncnc4n3C)CC2)CC1 [Example 4]         pIC50           < 7.00
6  C=CC(=O)N1CC2(CC=C(c3c(-c4ccc(Oc5ncccn5)cc4)c4c(N)ncnc4n3C)CC2)C1 [Example 1]         pIC50           < 7.00
7  C=CC(=O)N1CCC2(CC=C(c3c(-c4ccc(OC5CC5)cc4)c4c(N)ncnc4n3C)CC2)CC1 [Example 18]         pIC50           < 7.00

----------
Target: Ba/F3 FGFR2-V564F (Homo sapiens, UniProt P21802, V564F, cells depend on it)
Construct: fused on or other part: Q9H694 (Protein bicaudal C homolog 1)
Sequence (P21802 whole entry V564F, the tested form may be a part): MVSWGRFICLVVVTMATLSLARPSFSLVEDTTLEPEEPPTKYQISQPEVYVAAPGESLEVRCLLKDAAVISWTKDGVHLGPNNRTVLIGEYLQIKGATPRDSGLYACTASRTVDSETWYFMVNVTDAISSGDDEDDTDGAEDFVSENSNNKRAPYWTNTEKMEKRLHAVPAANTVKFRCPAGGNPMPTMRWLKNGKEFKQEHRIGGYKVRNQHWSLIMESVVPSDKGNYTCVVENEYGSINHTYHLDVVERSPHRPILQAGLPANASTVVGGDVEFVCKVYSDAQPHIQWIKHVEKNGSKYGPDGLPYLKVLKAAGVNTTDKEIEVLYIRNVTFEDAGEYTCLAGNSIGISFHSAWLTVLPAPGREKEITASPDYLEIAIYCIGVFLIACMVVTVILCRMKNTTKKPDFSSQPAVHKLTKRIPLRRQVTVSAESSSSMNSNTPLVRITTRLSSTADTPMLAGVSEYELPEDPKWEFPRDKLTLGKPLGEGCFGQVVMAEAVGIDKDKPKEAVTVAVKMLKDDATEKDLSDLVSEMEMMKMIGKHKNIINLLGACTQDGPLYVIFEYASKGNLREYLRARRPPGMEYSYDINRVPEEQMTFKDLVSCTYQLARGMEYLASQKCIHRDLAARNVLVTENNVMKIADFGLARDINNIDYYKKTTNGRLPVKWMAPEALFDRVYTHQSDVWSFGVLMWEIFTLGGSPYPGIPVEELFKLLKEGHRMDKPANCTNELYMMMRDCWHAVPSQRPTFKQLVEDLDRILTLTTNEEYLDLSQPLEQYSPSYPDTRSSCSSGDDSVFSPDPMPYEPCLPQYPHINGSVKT
Experiment: 2D cell proliferation assay, Ba/F3 FGFR2-V564F
Format: cell-based, mouse
Conditions: 96 hours, CTG, read-out: Cell Line, IC50 Ba/F3 FGFR2-V564F
Description: Low IC50 values are indicative of the high potency of the FGFR inhibitor compounds in this assay selling. […] Cells growing in the log phase are detached with Gibco™ TrypLE™ Express Enzyme and plated in 96 well plate at 3000 to 5000 cells/well in 100 μl of media. […] The luminescence signals are determined with a Biotek™ plate reader. Data is fitted using a sigmoidal curve analysis program (GraphPad Prism®) with variable hill slope and IC50 is determined.
Overview of recorded GI50 for various compounds
Readout Kind: GI50

> print(dat)
                                   compound  recorded.result
1  C=CC(=O)N1CCC2(CC=C(c3c(-c4ncc(OC5CCOC5)cn4)c4c(N)ncnc4n3C)CC2)CC1 (stereo not shown)         > 100 nM
2  C=CC(=O)N1CCC2(CC=C(c3c(-c4ccc(OC5CC5)nc4)c4c(N)ncnc4n3C)CC2)CC1       1 to 10 nM
3  C=CC(=O)N1CCC2(CC=C(c3c(-c4ncc(OC5CC5)cn4)c4c(N)ncnc4n3C)CC2)CC1           ≤ 1 nM
4  C=CC(=O)N1CCC2(CC=C(c3[nH]c4ncnc(N)c4c3-c3ncccn3)CC2)CC1       1 to 10 nM
5  C=CC(=O)N1CCC2(CC=C(c3c(-c4ncc(C5CCOC5)cn4)c4c(N)ncnc4n3C)CC2)CC1 (stereo not shown)           ≤ 1 nM
6  C=CC(=O)N1CCC2(CC=C(c3c(-c4ccc(OC5CCCC5)nc4)c4c(N)ncnc4n3C)CC2)CC1     30 to 100 nM
7  C=CC(=O)N1CCC2(CC=C(c3c(-c4ccc(OC(F)F)nc4)c4c(N)ncnc4n3C)CC2)CC1     30 to 100 nM

# credit: patent US20260152503A1
